- Measured target: dopaminergic receptors D2 (Homo sapiens)
- Sequence (P14416 whole entry): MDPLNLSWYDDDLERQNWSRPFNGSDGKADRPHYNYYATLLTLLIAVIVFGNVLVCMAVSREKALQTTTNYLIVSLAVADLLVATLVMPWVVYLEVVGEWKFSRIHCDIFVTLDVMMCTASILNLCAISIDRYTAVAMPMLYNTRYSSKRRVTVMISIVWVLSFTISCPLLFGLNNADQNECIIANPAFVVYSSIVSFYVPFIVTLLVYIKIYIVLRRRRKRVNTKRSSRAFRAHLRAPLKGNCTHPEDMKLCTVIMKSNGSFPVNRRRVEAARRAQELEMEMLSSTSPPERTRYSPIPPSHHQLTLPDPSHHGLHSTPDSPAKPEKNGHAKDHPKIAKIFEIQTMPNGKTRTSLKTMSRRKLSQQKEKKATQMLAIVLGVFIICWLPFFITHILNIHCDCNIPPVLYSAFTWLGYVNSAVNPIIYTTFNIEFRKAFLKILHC
- Procedure details: Radioligand binding assay, dopaminergic D2 receptors
- Reported conditions: binding assay, test compound 1×10^−6 M
I would appreciate it if you labelled entries 1 (yes) when inhibition at 1 µM is 90% or higher, otherwise 0 (no).

Compound: Cc1c(S(=O)(=O)NC2CCN(CCCc3noc4cc(F)ccc34)C2)sc2ccc(Cl)cc12 (centres unmarked)
Cat: 1 (yes)
//
Compound: O=S(=O)(NCC1CCN(CCOc2nsc3ccccc23)C1)c1ccc2ccccc2c1 (centres unmarked)
Cat: 0 (no)
//
Compound: O=C1Cc2cc(S(=O)(=O)NCC3CN(CCOc4cccc5c4OCCO5)C3)ccc2N1
Cat: 0 (no)
//
Compound: Cn1ccc2cc(S(=O)(=O)NCC3CCN(CCOc4cccc5ccccc45)C3)ccc21 (centres unmarked)
Cat: 0 (no)
//
Compound: Cc1cc(S(=O)(=O)N[C@@H]2CCN(CCCc3noc4cc(F)ccc34)C2)c(C)s1
Cat: 1 (yes)
//
Compound: Cn1ccc2c(S(=O)(=O)NCC3CCN(CCCc4noc5cc(F)ccc45)C3)cccc21 (centres unmarked)
Cat: 0 (no)
//
Compound: Cc1c(S(=O)(=O)NC2CCN(CCCc3noc4cc(F)ccc34)C2)sc2ccc(F)cc12 (centres unmarked)
Cat: 1 (yes)
